# Lookup of reported Kd keyed by entry
- Subject of test: T1, human serum albumin (human, UniProt P02768 25-609)
- T1 construct: For SEC-MALS purified from CSL Behring 20% solution; also called HSA; SA (human)
- Experiment summary: SPR (ProteOn)
Give the value, in units of nM, as a plain number.

Use these answered entries as a reference point.
- Binder: "Protein #54 (designed binder) MRGSHHHHHHGSDLDKKLLEAARAGQDDEVRILMANGADVNAKDERGTTPLHLAAVYGHLEIVEVLLKAGADVNAKNETGYTPLHLADSSGHLEIVEVLLKAGADVNAQDKSGKTPADLAADAGHEDIAEVLQKAA"
  Measurement kind: "Kd"
  Units of measure: "nM"
  Recorded number: 11
- Binder: "Protein #48 (designed binder) MRGSHHHHHHGSDLGKKLLEAARAGQDDEVRILLKAGADVNAKDYFSHTPLHLAARNGHLKIVEVLLKAGADVNAKDFAGKTPLHLAANDGHLEIVEVLLKAGADVNAQDIFGKTPADIAADAGHEDIAEVLQKAA"
  Measurement kind: "Kd"
  Units of measure: "nM"
  Recorded number: 20

Recorded Kd for Protein #55 (designed binder) MRGSHHHHHHGSDLDKKLLEAARAGQDDEVRILMANGADVNAKDERGTTPLHLAAVYGHLEIVEVLLKAGADVNAKNETGYTPLHLADSSGHLEIVEVLLKHGADVNAQDKSGKTPADLAADAGHEDIAEVLQKAA , please?
15

Ok, now Protein #52 (designed binder) MRGSHHHHHHGSDLDKKLLEAARAGQDDEVRILMANGADVNAKDERGTTPLHLAAVYGHLEIVEVLLKAGADVNAKNETGYTPLHLADSSGHLEIVEVLLKHSADVNAQDKSGKTPADLAADAGHEDIAEVLQKAA
6

// data source = patent US20160289285A1
